# Tested on: SK-OV-3 ovarian
# Method: NCI tumour cell line growth inhibition, 48 h
Measured Endpoint: GI50

Reported GI50 of COC1=C(Br)C(=O)C2=C(C1=O)C1C3=C(C(=O)C=CC3=O)C2c2ccccc21 (stereo unspecified) : 45.6 µM

GI50 in this record for COc1ccc(-c2csc(NC(=O)c3cc(O)c(O)c(O)c3)n2)cc1 : 17.2 µM

Nc1ncnc2c1cnn2Cc1ccc(Cl)cc1 yielded GI50 of > 100 µM

Per the record, Fc1ccc2[nH]cc(SSc3c[nH]c4ccc(F)cc34)c2c1 has GI50 of 6.13 µM

Per the record, CCSc1nnc(-c2ccc3ccccc3c2O)n1-c1ccc(Cl)cc1 has GI50 of 69.5 µM

Summary for this compound, C1COCCOCCOCCOCCO1.CC(=O)[CH-]C(C)=O.CC(=O)[CH-]C(C)=O.CC(=O)[CH-]C(C)=O.[V] : GI50 is 17.6 µM
